Target: TYK2 (Homo sapiens)
Construct: Degradation of TYK2 in cells was quantitatively measured using Meso Scale Discovery (MSD) technology; endogenous in cells; host or cells: OCI-LY10
Test: TYK2 MSD degradation in OCI-LY10 cells
Type: cell-based
Conditions: TYK2 degradation in OCI-LY10 cells, 4 to 24 hours incubation, read-out: TYK2 MSD OCI-LY10 Rel-DC50
readout.type: DC50

// worked examples, DC50 included
compound	val
CNc1cc(N2CCc3c(C4CCN(CC5CCC6(CC5)CCN(C(=O)c5ccc(Cl)c(N7CCC(=O)NC7=O)c5)CC6)CC4)cccc32)nn2c(C(=O)NC3CC3)cnc12 [I-56]	< 10 nM
CNc1cc(N2CCc3c(CN4CCC(N5CCC(C6CCN(c7ccc8c(c7)n(C)c(=O)n8C7CCC(=O)NC7=O)CC6)CC5)C(F)(F)C4)cccc32)nn2c(C(=O)N[C@H]3C[C@H]3F)cnc12 (some centres unmarked) [I-84]	< 10 nM
CNc1cc(N2CCc3c(-c4ccc(CN5CCN(Cc6ccc(C7CCC(=O)NC7=O)c(Cl)c6)CC5)cn4)cccc32)nn2c(C(=O)N[C@@H]3C[C@@H]3F)cnc12 (some centres unmarked) [I-374]	< 10 nM
CNc1cc(N2CCc3c(-c4ccc(OC5CCC6(CC5)CCN(Cc5ccc(Cl)c(N7CCC(=O)NC7=O)c5)CC6)cn4)cccc32)nn2c(C(=O)N[C@@H]3C[C@@H]3F)cnc12 [I-362]	> 100 nM

Next:
Item CNc1cc(N2CCc3c(-c4cc(C)c(CN5CC6(CCN(C(=O)c7cc(C)c(Cl)c(N8CCC(=O)NC8=O)c7)CC6(F)F)C5)cn4)cccc32)nn2c(C(=O)N[C@@H]3C[C@@H]3F)cnc12 [I-958] : provide DC50
< 1 nM

---

Target: TYK2 (Homo sapiens, UniProt P29597)
Construct: Degradation of TYK2 in cells was quantitatively measured using Meso Scale Discovery (MSD) technology; endogenous in cells; host or cells: OCI-LY10
Sequence (P29597 whole entry): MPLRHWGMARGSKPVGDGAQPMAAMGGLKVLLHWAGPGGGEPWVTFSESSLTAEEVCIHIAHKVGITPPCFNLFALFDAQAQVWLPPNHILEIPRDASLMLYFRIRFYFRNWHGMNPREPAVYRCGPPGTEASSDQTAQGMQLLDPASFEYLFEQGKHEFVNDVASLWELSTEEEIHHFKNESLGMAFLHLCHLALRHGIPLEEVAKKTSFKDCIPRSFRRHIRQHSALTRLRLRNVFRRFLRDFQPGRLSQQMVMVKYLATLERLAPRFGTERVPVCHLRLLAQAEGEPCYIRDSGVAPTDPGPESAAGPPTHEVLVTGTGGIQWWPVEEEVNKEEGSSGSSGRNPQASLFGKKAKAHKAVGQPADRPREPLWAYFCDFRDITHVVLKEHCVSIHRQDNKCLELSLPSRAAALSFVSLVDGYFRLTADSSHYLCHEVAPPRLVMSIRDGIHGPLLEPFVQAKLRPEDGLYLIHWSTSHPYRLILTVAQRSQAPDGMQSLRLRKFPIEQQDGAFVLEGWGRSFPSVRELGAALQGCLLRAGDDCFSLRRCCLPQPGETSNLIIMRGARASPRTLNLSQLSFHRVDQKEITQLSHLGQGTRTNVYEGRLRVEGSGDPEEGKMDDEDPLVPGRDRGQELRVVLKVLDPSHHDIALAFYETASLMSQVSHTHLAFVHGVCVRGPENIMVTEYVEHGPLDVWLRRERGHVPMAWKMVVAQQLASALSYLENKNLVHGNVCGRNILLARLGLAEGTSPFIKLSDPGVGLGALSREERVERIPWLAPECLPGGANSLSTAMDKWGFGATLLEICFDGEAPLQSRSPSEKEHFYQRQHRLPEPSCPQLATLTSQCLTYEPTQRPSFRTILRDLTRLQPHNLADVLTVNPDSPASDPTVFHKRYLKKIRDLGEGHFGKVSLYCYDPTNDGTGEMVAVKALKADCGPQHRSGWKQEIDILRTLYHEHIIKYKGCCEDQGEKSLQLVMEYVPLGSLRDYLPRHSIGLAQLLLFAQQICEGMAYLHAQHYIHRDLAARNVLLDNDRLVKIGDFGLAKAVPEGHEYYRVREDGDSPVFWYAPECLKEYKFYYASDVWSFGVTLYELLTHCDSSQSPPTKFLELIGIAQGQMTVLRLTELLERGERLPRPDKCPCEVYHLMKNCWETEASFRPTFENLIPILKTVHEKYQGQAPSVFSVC
Test: TYK2 MSD degradation in OCI-LY10 cells
Assay type: cell-based
Details: TYK2 degradation in OCI-LY10 cells, 4 to 24 hours incubation, read-out: TYK2 MSD OCI-LY10 Rel-DC50
readout.type: DC50

Below: 5 molecules and their reported DC50.
molecule	DC50
CNc1cc(N2CCc3c(CN4CCC(N5CCC6(CC5)CN(C(=O)c5ccc(Cl)c(N7CCC(=O)NC7=O)c5)C6)C(F)(F)C4)cccc32)nn2c(C(=O)N[C@@H]3C[C@@H]3F)cnc12 (stereo partly shown)	< 1 nM
CNc1cc(N2CCc3c(CN4CC[C@@H](N5CCC6(CCN(C(=O)c7cc(N8CCC(=O)NC8=O)c(Cl)cn7)CC6)CC5)C(F)(F)C4)cc(F)cc32)nn2c(C(=O)N[C@@H]3CC[C@H]3OC)cnc12	< 1 nM
CNc1cc(N2CCc3c(-c4cc(CN5CCN(C(=O)c6ccc(Cl)c(N7CCC(=O)NC7=O)c6)CC5)ccn4)cccc32)nn2c(C(=O)N[C@@H]3C[C@@H]3F)cnc12	< 10 nM
CNc1cc(N2CCc3c(CN4CCC(N5CCC(Oc6ccc(Cl)c(N7CCC(=O)NC7=O)c6)CC5)C(F)(F)C4)cccc32)nn2c(C(=O)N[C@@H]3C[C@@H]3F)cnc12 (stereo partly shown)	> 100 nM
CNc1cc(N2CCc3c(-c4ccc(CN5CC6(CCN(C(=O)c7ccc(Cl)c(N8CCC(=O)NC8=O)c7)C6)C5)cn4)cccc32)nn2c(C(=O)NC3CC3F)cnc12 (stereo not shown)	< 1 nM

State recorded DC50 for all listed molecules.
1. CNc1cc(N2CCc3c(-c4ccc(CN5CC6(CCC(=Cc7ccc(Cl)c(N8CCC(=O)NC8=O)c7)CC6)C5)cn4)cccc32)nn2c(C(=O)N[C@@H]3C[C@@H]3F)cnc12
2. CNc1cc(N2CCc3c(-c4ccc(CN5CCC6(CCN(C(=O)c7ccc(Cl)c(N8CCC(=O)NC8=O)c7)CC6)C5)cn4)cccc32)nn2c(C(=O)N[C@H]3C[C@H]3F)cnc12
3. CNc1cc(N2CCc3c(-c4ccc(CN5CCC(N6CCN(c7ccc8c(c7)n(C)c(=O)n8C7CCC(=O)NC7=O)CC6)CC5)cn4)cccc32)nn2c(C(=O)N[C@@H]3C[C@@H]3F)cnc12 (stereo partly shown)
4. CNc1cc(N2CCc3c(-c4ccc(CN5CCC6(CCN(C(=O)c7cc(C)c(Cl)c(N8CCC(=O)NC8=O)c7)CC6)C(F)(F)C5)cn4)cccc32)nn2c(C(=O)NC3CCC3(F)F)cnc12 (stereo not shown)
5. CNc1cc(N2CCc3c(-c4cc(CN5CC6(CCN(C(=O)c7ccc(Cl)c(N8CCC(=O)NC8=O)c7)CC6)C5)ccn4)cccc32)nn2c(C(=O)N[C@@H]3C[C@@H]3F)cnc12

1: 10 to 100 nM; 2: < 1 nM; 3: < 1 nM; 4: < 10 nM; 5: < 10 nM

---

Biological target: TYK2 (Homo sapiens, UniProt P29597)
Construct: Degradation of TYK2 in cells was quantitatively measured using Meso Scale Discovery (MSD) technology; endogenous in cells; host or cells: OCI-LY10
Experiment: TYK2 MSD degradation in OCI-LY10 cells
Type: cell-based
Conditions: TYK2 degradation in OCI-LY10 cells, 4 to 24 hours incubation
readout.type: TYK2 MSD OCI-LY10 Dmax %

Check out these entries, answers already filled in.
compound	TYK2 MSD OCI-LY10 Dmax %
CNc1cc(N2CCc3c2cccc3C23CC(CN4CCC(N5CCC6(CCN(C(=O)c7ccc(Cl)c(N8CCC(=O)NC8=O)c7)CC6)CC5)C(F)(F)C4)(C2)C3)nn2c(C(=O)N[C@@H]3C[C@@H]3F)cnc12 (some centres unmarked) [I-807]	B (B (90 to >75%))
CNc1cc(N2CCc3c(-c4ccc(N5CCC6(CCN(C(=O)c7ccc(N8CCC(=O)NC8=O)c(Cl)c7)CC6)CC5)cn4)cccc32)nn2c(C(=O)N[C@@H]3C[C@@H]3F)cnc12 [I-885]	C (C (75 to 50%))
CNc1cc(N2CCc3c(-c4ccc(CN5CCC6(CCN(C(=O)c7cc(C)c(Cl)c(N8CCC(=O)NC8=O)c7)CC6)C(F)(F)C5)cn4)cccc32)nc2c(C(=O)N[C@@H]3C[C@@H]3F)cnn12 [I-816]	B (B (90 to >75%))
CNc1cc(N2CCc3c(-c4ccc(OC5CCC6(CC5)CCN(C(=O)c5ccc(Cl)c(N7CCC(=O)NC7=O)c5)CC6)cn4)cccc32)nn2c(C(=O)N[C@@H]3C[C@@H]3F)cnc12 [I-75]	C (C (75 to 50%))

Indicate its recorded TYK2 MSD OCI-LY10 Dmax %; the compound in question is CNc1cc(N2CCc3c(-c4ccc(CN5CCC(N6CCN(c7ccc8c(c7)n(C)c(=O)n8C7CCC(=O)NC7=O)CC6)CC5)cn4)cccc32)nn2c(C(=O)N[C@@H]3C[C@@H]3F)cnc12 (some centres unmarked) [I-1]
B (B (90 to >75%))

---

Molecular target: TYK2 (Homo sapiens)
Construct: Degradation of TYK2 in cells was quantitatively measured using Meso Scale Discovery (MSD) technology; endogenous in cells; host or cells: OCI-LY10
Experiment: TYK2 MSD degradation in OCI-LY10 cells
Type: cell-based
Details: TYK2 degradation in OCI-LY10 cells, 4 to 24 hours incubation, read-out: TYK2 MSD OCI-LY10 Rel-DC50
Provide the recorded DC50 for the entries that follow.

compound	val
CNc1cc(N2CCc3c(CN4CCC5(CC4)CCN(C(=O)c4ccc(Cl)c(N6CCC(=O)NC6=O)c4)CC5)cccc32)nn2c(C(=O)NC3CC3)cnc12	> 100 nM
CNc1cc(N2CCc3c(-c4ccc(CN5CCC6(CCN(C(=O)c7cc(Cl)cc(N8CCC(=O)NC8=O)c7)CC6)C(F)(F)C5)cn4)cccc32)nn2c(C(=O)N[C@@H]3C[C@@H]3F)cnc12	< 10 nM
CNc1cc(N2CCc3c(-c4ccc(CN5CC6(CCN(C(=O)c7ccc(N8CCC(=O)NC8=O)c(Cl)c7)CC6)C5)cn4)cccc32)nn2c(C(=O)N[C@@H]3C[C@@H]3F)cnc12	> 100 nM
CNc1cc(N2CCc3c(-c4ccc(CN5CCC6(CCN(C(=O)c7cc(C)c(Cl)c(N8CCC(=O)NC8=O)c7)CC6)C(F)(F)C5)cn4)cccc32)nn2c(C(=O)NC3CCCC3(F)F)cnc12 (centres unmarked)	10 to 100 nM

Next, consider the following compound.
Look up and state reported DC50 for `CNc1cc(-c2cn(C3CCN(C(=O)c4ccc(Cl)c(N5CCC(=O)NC5=O)c4)CC3)c3ccccc23)nn2c(C(=O)N[C@@H]3C[C@@H]3F)cnc12`
> 100 nM

---

Molecular target: TYK2 (Homo sapiens)
Construct: Degradation of TYK2 in cells was quantitatively measured using Meso Scale Discovery (MSD) technology; endogenous in cells; host or cells: OCI-LY10
Test: TYK2 MSD degradation in OCI-LY10 cells
Format: cell-based
Conditions: OCI-LY10 cells, 4 to 24 hours incubation, read-out: TYK2 MSD OCI-LY10 Rel-DC50
readout.type: DC50

compound	DC50
CNc1cc(N2CCc3c(-c4ccc(CN5CC6(CCN(C(=O)c7ccc(Cl)c(N8CCC(=O)NC8=O)c7)CC6(F)F)C5)cn4)cccc32)nn2c(C(=O)NC3CC(F)(F)C3)cnc12 [I-653]	< 10 nM

The following compounds each have a reported value; give each one's DC50.
1. CNc1cc(N2CCc3c(-c4ccc(CN5CC6(CCC(COc7ccc(Cl)c(C8CCC(=O)NC8=O)c7)CC6)C5)cn4)cccc32)nn2c(C(=O)N[C@@H]3C[C@@H]3F)cnc12 (some centres unmarked) [I-462]
2. CNc1cc(N2CCc3c(C#CCN4CCC(N5CCC6(CCN(C(=O)c7ccc(Cl)c(N8CCC(=O)NC8=O)c7)CC6)CC5)C(F)(F)C4)cccc32)nn2c(C(=O)N[C@@H]3C[C@@H]3F)cnc12 (some centres unmarked) [I-700]
3. CNc1cc(N2CCc3c(CN4CCC(N5CCC(CC#Cc6cccc7c6n(C)c(=O)n7C6CCC(=O)NC6=O)CC5)C(F)(F)C4)cccc32)nn2c(C(=O)NC3CC3F)cnc12 (centres unmarked) [I-488]
4. CNc1cc(N2CCc3c(-c4cc(CN5CCN(c6ccn7c(N8CCC(=O)NC8=O)cnc7c6)CC5)ccn4)cccc32)nn2c(C(=O)N[C@@H]3C[C@@H]3F)cnc12 [I-719]
5. CNc1cc(N2CCc3c(-c4ccc(OCC5CCN(Cc6ccc(Cl)c(C7CCC(=O)NC7=O)c6)CC5)cn4)cccc32)nn2c(C(=O)N[C@@H]3C[C@@H]3F)cnc12 (some centres unmarked) [I-425]
6. CNc1cc(N2CCc3c(CN4CCC(N5CC(CN6CCN(C(=O)c7ccc(Cl)c(N8CCC(=O)NC8=O)c7)CC6)C5)C(F)(F)C4)cccc32)nn2c(C(=O)N[C@@H]3C[C@@H]3F)cnc12 (some centres unmarked) [I-710]

1: 10 to 100 nM; 2: < 1 nM; 3: 10 to 100 nM; 4: < 10 nM; 5: > 100 nM; 6: < 10 nM

Report DC50 for each item below.
1. CNc1cc(-c2cn(C3CCN(C4CCN(C(=O)c5ccc(Cl)c(N6CCC(=O)NC6=O)c5)CC4)CC3)c3ccccc23)nn2c(C(=O)N[C@@H]3C[C@@H]3F)cnc12 [I-767]
2. CNc1cc(N2CCc3c2ccc(F)c3CN2CCC(N3CCC4(CCN(C(=O)c5ccc(Cl)c(N6CCC(=O)NC6=O)c5)CC4)CC3)C(F)(F)C2)nn2c(C(=O)N[C@@H]3C[C@@H]3F)cnc12 (some centres unmarked) [I-750]

1: > 100 nM; 2: < 1 nM

Hi! Can you tell me DC50 for each of these compounds?
1. CNc1cc(N2CCc3c(-c4ccc(CN5CC6(CCN(Cc7cc(N8CCC(=O)NC8=O)c(Cl)cc7C)CC6(F)F)C5)cn4)cccc32)nn2c(C(=O)N[C@@H]3C[C@@H]3F)cnc12 [I-456]
2. CNc1cc(N2CCc3c(CN4CCC(N5CCC(N(C)c6ccc(Cl)c(N7CCC(=O)NC7=O)c6)CC5)C(F)(F)C4)cccc32)nn2c(C(=O)N[C@@H]3C[C@@H]3F)cnc12 (some centres unmarked) [I-758]

["> 100 nM", "< 10 nM"]
